# method: First in Human single ascending dose phase I study: plasma pharmacokinetics after inhalation
# Assay type: in vivo
# condition-notes: male, human, inhaled or intranasal, inhaled single dose, read-out: t½ (converted)
readout-name: half-life (h)
Report the figure in h without appending any unit label.

[in] # input compound: OC[C@H]1O[C@@H](S[C@@H]2O[C@H](CO)[C@H](O)[C@H](n3cc(-c4cccc(F)c4)nn3)[C@H]2O)[C@H](O)[C@@H](n2cc(-c3cccc(F)c3)nn2)[C@H]1O [compound of formula I] ; wanted: its half-life
[out] 12
